System: Trypanosoma cruzi
Experiment: WHO-TDR: Chagas disease
Type: functional, organism-based, Homo sapiens
Settings: MRC5
Kindly state IC50 for each of the entries shown.

Prompt: Return reported IC50. Input molecule: CCOC(=O)N1CCC(NC(=O)CCc2csc(NC(=O)c3ccccc3)n2)CC1
Completion: > 12.9 µg/mL

Prompt: Return reported IC50. Input molecule: CN(c1ccccc1)c1nnc(-c2ccc(NC(=O)Cc3cccs3)cc2)s1
Completion: > 12.2 µg/mL

Prompt: Return reported IC50. Input molecule: Cc1ccc2c(c1)NC(=O)c1cc(NC(=O)C3CCCC3)ccc1O2
Completion: > 10.1 µg/mL

Prompt: Return reported IC50. Input molecule: Cc1c(Cl)ccc2sc(NC(=O)c3ccc(S(=O)(=O)N4CC(C)CC(C)C4)cc3)nc12 (stereo unspecified)
Completion: > 14.3 µg/mL

Prompt: Return reported IC50. Input molecule: Cc1cc(C)cc(NC(=O)NCCNc2ccc(Nc3ccccn3)nn2)c1
Completion: > 11.3 µg/mL

Prompt: Return reported IC50. Input molecule: O=C(CSc1nc2ccccc2nc1O)Nc1ccccc1C(=O)c1ccccc1
Completion: > 12.5 µg/mL

Prompt: Return reported IC50. Input molecule: COc1cccc(-c2cc(CC(=O)NCc3c(F)cccc3F)no2)c1
Completion: > 10.8 µg/mL

Prompt: Return reported IC50. Input molecule: Cc1ccc(S(=O)(=O)N(CC(O)CNCc2ccco2)c2ccc(F)cc2)cc1 (stereo unspecified)
Completion: 5.67 µg/mL

Prompt: Return reported IC50. Input molecule: COc1ccc(S(=O)(=O)CC(=O)Nc2sc(-c3ccccc3)cc2C(N)=O)cc1
Completion: > 12.9 µg/mL

Prompt: Return reported IC50. Input molecule: Cc1ccnc(Nc2ccc(N3CCN(C(=O)c4ccc(F)cc4)CC3)nn2)c1
Completion: > 11.8 µg/mL

Prompt: Return reported IC50. Input molecule: CC(C)c1cc(C(=O)NCC2CCCO2)nn1-c1nc2ccccc2s1 (stereo unspecified)
Completion: > 11.1 µg/mL

Prompt: Return reported IC50. Input molecule: CCn1ccc(C(=O)Nc2nc(C(C)(C)C)cs2)n1
Completion: > 8.35 µg/mL

Prompt: Return reported IC50. Input molecule: O=C(NCc1cc(-c2ccccc2F)on1)c1ccc(Br)o1
Completion: > 11 µg/mL

Prompt: Return reported IC50. Input molecule: O=C(Cn1c(=O)n(Cc2cccs2)c(=O)c2ncccc21)OCc1ccccc1
Completion: > 12.2 µg/mL

Prompt: Return reported IC50. Input molecule: O=C(CCSc1ccccc1)NCCOc1ccc2nnc(-c3ccc(F)cc3)n2n1
Completion: > 13.1 µg/mL

Prompt: Return reported IC50. Input molecule: N#Cc1ccsc1NC(=O)C(c1ccccc1)c1ccccc1
Completion: > 9.55 µg/mL

Prompt: Return reported IC50. Input molecule: COc1ccc(Cl)cc1S(=O)(=O)Nc1ccc2c(c1)CCC(=O)N2CCC(C)C
Completion: > 13.1 µg/mL

Prompt: Return reported IC50. Input molecule: O=S(=O)(c1cccnc1)N1CCN(c2ccc(-c3cccs3)nn2)CC1
Completion: > 11.6 µg/mL

Prompt: Return reported IC50. Input molecule: O=C(NCCNc1ccc(Nc2ccccn2)nn1)Nc1ccc(F)cc1
Completion: > 11 µg/mL

Prompt: Return reported IC50. Input molecule: O=C(CSC1=Nc2cccnc2Nc2ccccc21)Nc1ccc(F)c(F)c1
Completion: > 11.9 µg/mL

Prompt: Return reported IC50. Input molecule: O=C(CS(=O)(=O)c1ccc(F)cc1)Nc1onc2c1CCC2
Completion: 1.71 µg/mL

Prompt: Return reported IC50. Input molecule: O=C(c1cccc(F)c1)N(CCCn1ccnc1)c1nc2ccc(F)cc2s1
Completion: 3.32 µg/mL

Prompt: Return reported IC50. Input molecule: O=C(CS(=O)(=O)c1ccc(Cl)cc1)Nc1nc(-c2ccc(F)cc2)cs1
Completion: > 12.3 µg/mL

Prompt: Return reported IC50. Input molecule: CN(C)CCCN(C(=O)c1ccc(S(=O)(=O)N(C)C2CCCCC2)cc1)c1nc2c(F)cccc2s1
Completion: 5.16 µg/mL

Prompt: Return reported IC50. Input molecule: O=S(=O)(c1cccc(Cl)c1)N1CCN(c2ccc(Nc3ccncc3)nn2)CC1
Completion: 3.98 µg/mL

Prompt: Return reported IC50. Input molecule: Cc1csc(NC(=O)CSc2nnc(NC(=O)c3ccco3)s2)n1
Completion: 5.1 µg/mL

Prompt: Return reported IC50. Input molecule: COC(=O)c1ccc(COc2cccc3c2CCN(Cc2ccc(Cl)cc2)C3=O)o1
Completion: 3.19 µg/mL

Prompt: Return reported IC50. Input molecule: O=C(COc1cccc2c1CCN(Cc1ccccc1F)C2=O)N1CCC(Cc2ccccc2)CC1
Completion: 0.557 µg/mL

Prompt: Return reported IC50. Input molecule: CS(=O)(=O)c1ccc2nc(N(Cc3cccnc3)C(=O)c3ccc4ccccc4c3)sc2c1
Completion: 0.225 µg/mL

Prompt: Return reported IC50. Input molecule: CC(C)Sc1ccc(C(=O)Nc2nc(-c3ccccn3)cs2)cc1
Completion: 0.368 µg/mL

Prompt: Return reported IC50. Input molecule: O=C(Nc1nnc(-c2ccc(Br)s2)o1)C1CCCN1S(=O)(=O)c1cccs1 (stereo unspecified)
Completion: > 14.7 µg/mL
